Data origin, for the record: PubChem BioAssay (NCI)

# System: RPMI-8226 leukemia
# experiment_notes: NCI-60 one-dose screen, 48 h (100 = growth as untreated, 0 = no growth, -100 = all killed)
# condition_info: 10 µM unless noted
# Method: Growth inhibition of the RPMI-8226 human tumor cell line is measured as a screen for anti-cancer activity. Cells are grown in 96 well plates and exposed to the test compound for 48 hours. Compounds are tested at a single concentration, which is 10^-5 M for most compounds. The reported endpoint is percent growth (GI% or GIPRCNT), where numbers from 0 - 100% represent growth inhibition, and numbers from -100% - 0 represent cell death. For example, a value of 40 represents 60% growth inhibition. […]
Compounds without any hit were thinned out: in the full panel of roughly 83,000, 20% have a hit.
growth reference
Write the number in % without appending the unit.

Query :: # value lookup — system RPMI-8226 leukemia, readout growth, item `Cc1ccc(Nc2cc(=S)nc(N)[nH]2)cc1C`
Result :: 100

Query :: Missing value: growth, RPMI-8226 leukemia, entry `CN1CCN(C(=O)[C@]2(C)CC[C@]3(C)CC[C@]4(C)C(=CC(=O)[C@@H]5[C@@]6(C)CCC(=O)NC(C)(C)[C@@H]6CC[C@]54C)[C@@H]3C2)CC1` . Fill in?
Result :: 99.7

Query :: Please state recorded growth (tested on RPMI-8226 leukemia) of `CCOC(=O)c1c(O)cc(-c2ccccc2)cc1-c1sc(N(C)Cc2ccccc2)nc1Cl`
Result :: 95.2

Query :: Query growth on RPMI-8226 leukemia for `CN1CCCC1=Nc1ccccc1`
Result :: 107

Query :: Lab request: please report growth under test system RPMI-8226 leukemia for `C=C1C(=O)O[C@H]2[C@H]1CC/C(COC(=O)CCCc1c[nH]c3ccccc13)=C\CC[C@@]1(C)O[C@@H]21`
Result :: -17.6

Query :: # value lookup — system RPMI-8226 leukemia, readout growth, item `Cn1c(COC(=O)NCCn2ccnc2)nc2c(N3CCOCC3)nc(-c3ccccc3)nc21`
Result :: -29.4

Query :: Enter reported growth observed with RPMI-8226 leukemia for `CC(=O)[C@@H]1CC[C@]2(C(N)=O)CC[C@]3(C)[C@H](CC[C@@H]4[C@@]5(C)CCC(=O)C(C)(C)[C@@H]5CC[C@]43C)[C@@H]12`
Result :: 80.4

Query :: Observed growth on RPMI-8226 leukemia for `Cc1c2c(cc[n+]1Cc1ccccc1)c1ccc(OCc3ccccc3)cc1n2Cc1ccccc1` , please.
Result :: -21.6

More entries:
Query :: Request: growth, test system RPMI-8226 leukemia, entry `CCCCc1ccc(Nc2nnc(SCC(=O)NC(=O)NCC)s2)cc1`
Result :: 85

Query :: Short answer please: growth, RPMI-8226 leukemia, entry `Fc1ccccc1CSc1ncnc2nc[nH]c12`
Result :: 95.1

Query :: // fetch RPMI-8226 leukemia growth for CC(Oc1ccc(C(=O)NS(=O)(=O)C(C)(C)C)cc1C(F)(F)F)c1ccc(Oc2ccccc2)cn1 (centres undefined)
Result :: 94.8

Query :: Please tell me: growth of `Cc1ccc(/C=C/C(=O)c2ccc(N)cc2)c(C)c1` , system RPMI-8226 leukemia?
Result :: 33

====

# Test system: HS 578T breast
# experiment_notes: NCI-60 one-dose screen, 48 h (100 = growth as untreated, 0 = no growth, -100 = all killed)
# condition_info: 10 µM unless noted
Compounds without any hit were thinned out: in the full panel of roughly 83,000, 20% have a hit.
test_readout: growth (%)
Give your result in % as a bare value.

Below, 6 compounds whose answers are already recorded.
Query :: Field request: growth | item: `O=C1C(=O)c2c(nc3ncccn23)-c2ccccc21`
Result :: -18.7

Query :: Any idea what its growth is? The compound is `C[C@]12C[C@H]1CC[C@]1(C)[C@@H]2CC[C@@]23C[C@H](CC[C@H]21)[C@@](O)(CO)C3`
Result :: 99.6

Query :: Value lookup for growth; key = `COc1ccccc1Nc1cc(O)c2c(=O)cc(-c3ccccc3)oc2c1`
Result :: 45.6

Query :: What growth value was documented for this compound, `COc1cccc(CNCCN2C(=O)c3ccc4c5c(ccc(c35)C2=O)C(=O)N(CCNCc2cccc(OC)c2)C4=O)c1` ?
Result :: 121

Query :: What measured growth goes with `Clc1nc(Nc2ccccc2)nc(Nc2ccccc2)n1` ?
Result :: 121

Query :: What value of measured growth is listed for `O=C1/C(=C/c2ccc(O)cc2)COc2ccc(-c3ccccc3)cc21` ?
Result :: 88.2

---
Query :: Name the recorded growth for COc1ccc(C2CC(c3cccc(Nc4ccncc4)c3)=NN2c2cc(Cl)cc(Cl)c2)cc1 (stereo not given) .
Result :: 56.7

Query :: Reported growth, compound COc1ccc(C2CC(n3nnnc3-c3ccccc3)=NN2)cc1 (stereo not given) : ____
Result :: 99

Query :: Consider the compound `Cc1ccccc1CNc1ccc(N2CCOCC2)cc1` and give its measured growth.
Result :: 108

Query :: May I ask what growth has been recorded for `c1ccc(-c2nnc(Nc3ccc4c(c3)OCCO4)o2)c(NCc2ccncc2)c1` ?
Result :: 64.4
